- target-of-assay: Hexokinase-4 (Homo sapiens) (UniProt P35557)
- Sequence (P35557 whole entry): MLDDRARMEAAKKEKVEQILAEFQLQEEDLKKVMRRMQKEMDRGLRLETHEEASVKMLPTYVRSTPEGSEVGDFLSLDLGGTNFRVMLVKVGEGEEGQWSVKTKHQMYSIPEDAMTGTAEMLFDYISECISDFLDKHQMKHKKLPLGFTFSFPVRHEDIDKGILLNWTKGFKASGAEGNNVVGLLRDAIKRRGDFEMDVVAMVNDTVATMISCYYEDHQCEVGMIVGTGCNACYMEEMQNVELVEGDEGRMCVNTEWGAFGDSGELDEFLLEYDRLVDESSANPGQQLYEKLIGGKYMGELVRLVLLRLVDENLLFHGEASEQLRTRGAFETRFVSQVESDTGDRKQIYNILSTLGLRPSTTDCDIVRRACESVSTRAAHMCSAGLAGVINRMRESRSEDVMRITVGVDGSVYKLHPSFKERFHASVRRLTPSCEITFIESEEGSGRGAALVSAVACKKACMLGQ
- assay: Activation of human recombinant glucokinase expressed in Escherichia coli coexpressing G6PDH at 10 uM using 5 mM glucose by G6PDH coupled continuous spectrophotometric assay relative to Ro-28-1675
Here, each record is paired with measured Activity data.
Numbers only here, please. The scale is %.

- Cc1sc(-c2ccccc2C(N)=O)cc1C(=O)Nc1nc2c(s1)CCC2: 69
- CC(=O)c1ccccc1-c1cc(C(=O)Nc2nc3c(s2)CCC3)c(C)s1: 66
- Cc1cc(C(=O)Nc2nc3c(s2)CCC3)c(C)o1: 20

**Query** # return recorded Activity for entry Cc1cc(C(=O)Nc2nc3c(s2)CCC3)c(C)s1
**Result** 20

**Query** Provide only the value of recorded Activity for CCc1sc(-c2ccccc2C(N)=O)cc1C(=O)Nc1nc2c(s1)CCC2
**Result** 69
